# Tested on: MALME-3M melanoma
# EXPERIMENT SUMMARY: NCI tumour cell line growth inhibition, 48 h
PROPERTY MEASURED: TGI

QUERY: Please report the recorded TGI for c1ccc(-c2[nH]ncc2-c2ccnc(-c3ccc(OCCn4ccnc4)cc3)c2)nc1 .
RESULT: > 25 µM

QUERY: Recorded TGI of O=C(COc1ccc(OCC(=O)N/N=C/c2ccc(-c3ccc(Cl)cc3Cl)o2)c(Cl)c1)N/N=C/c1ccc(-c2ccc(Cl)cc2Cl)o1 , please.
RESULT: > 100 µM

QUERY: Please look up its TGI: Clc1cccc(-c2sc(-c3cccs3)cc2Cc2cccs2)c1
RESULT: > 10 µM

QUERY: What value of TGI has been reported for the following compound? O=C(Nc1cccc(-n2cc(-c3ccncc3)c(-c3cc(O)cc(Cl)c3)n2)c1)c1ccc(N2CCOCC2)c(C(F)(F)F)c1
RESULT: 5.19 µM

* * *

# System: EKVX NSCLC
# EXPERIMENT SUMMARY: NCI tumour cell line growth inhibition, 48 h
PROPERTY MEASURED: GI50

QUERY: Recorded GI50 of CCN=c1sc2c(n1NC(=O)c1cc3ccc1CCc1ccc(cc1)CC3)C(=O)c1ccccc1C2=O , please.
RESULT: 0.632 µM

QUERY: Quick check: GI50 of N#CC(C(=O)C(=O)Nc1c(Cl)cccc1Cl)c1ccccc1 (stereo unspecified) ?
RESULT: > 100 µM

QUERY: Fill blank: measured GI50 of the compound O=C(OCc1ccc2c(Br)cc(Br)c(O)c2n1)c1cc2ccccc2[nH]1 is ____.
RESULT: 1.46 µM

QUERY: What value of GI50 has been reported for the following compound? Nc1ncnc2c1N=C(c1ccc3c(c1)OCO3)CC(c1ccc(Cl)cc1)N2 (stereo unspecified)
RESULT: 40.6 µM

QUERY: So what's the measured GI50 for this one? CN[C@@H](C)C(=O)N[C@H]1CN(S(=O)(=O)c2cccc(S(=O)(=O)N3CC[C@H]4CC[C@@H](C(=O)NC(c5ccccc5)c5ccccc5)N4C(=O)[C@@H](NC(=O)[C@H](C)NC)C3)c2)CC[C@H]2CC[C@@H](C(=O)NC(c3ccccc3)c3ccccc3)N2C1=O
RESULT: 25.2 µM

QUERY: Entry under review: CCNc1nc(O)c(/C=C2\C=Nc3ncccc32)s1 . Reported GI50?
RESULT: 16.6 µM

* * *

Can you tell me TGI for the items I'm about to list?
# Test system: IGROV1 ovarian
# EXPERIMENT SUMMARY: NCI tumour cell line growth inhibition, 48 h
Give the value in µM but do not write µM after it.

QUERY: Which value of TGI has been reported for CCn1cc(C(=O)O)c(=O)c2cc(F)c(N3CCN(S(=O)(=O)c4cccc5ccccc45)CC3)cc21 in the records?
RESULT: 7.49

QUERY: Please give the measured TGI for this molecule: Cc1c(C)n(-c2ccccc2)c2nc(S(C)=O)nc(S(C)=O)c12 (stereo not given)
RESULT: 17.2

QUERY: Which TGI reading was recorded for the molecule COC(=O)CC(=O)OSc1ccccc1 ?
RESULT: 20.2

* * *

# Tested on: OVCAR-8 ovarian
# EXPERIMENT SUMMARY: NCI tumour cell line growth inhibition, 48 h
PROPERTY MEASURED: TGI

QUERY: For CC(C)NC(=O)OCc1c(COC(=O)NC(C)C)n(C)c2c1ccc1sccc12 , what is its reported TGI?
RESULT: > 100 µM

QUERY: Look up TGI: CCCCCCCCCCCCCCCCCCOc1ccccc1CC(=O)NCC[N+]1(C)CCOCC1
RESULT: 29.9 µM

QUERY: Returns the measured TGI for the input compound. Input: COc1cc(C)c(CC/C(C)=C/Cc2cc(O)ccc2O)c(C)c1C
RESULT: > 25 µM

QUERY: Recorded TGI of CCc1c(O)cc(=O)oc1-c1ccc(OC)c(OC)c1 , please.
RESULT: > 100 µM

QUERY: Quick one: TGI for CCOC(=O)c1nc(C)oc1C(F)(F)F ?
RESULT: > 100 µM

QUERY: If you can, please state the reported TGI value of CN(C)CCCC1(c2ccc(F)cc2)OCc2cc(-c3cccc4[nH]ccc34)ccc21 (configuration not stated) .
RESULT: 3.7 µM

QUERY: Query: TGI; subject: OCc1cc2c(cn1)[nH]c1ccc(NCc3ccccc3)cc12
RESULT: > 100 µM

* * *

# System: NCI-H522 lung
# EXPERIMENT SUMMARY: NCI tumour cell line growth inhibition, 48 h
Exercise: for every item that follows, state its recorded TGI.

QUERY: May I ask what TGI has been recorded for O=[N+]([O-])c1ccccc1C1SCc2nc3ccccc3n21 (stereo unspecified) ?
RESULT: > 100 µM

QUERY: Can you look up the measured TGI of N#Cc1c(-c2ccc([N+](=O)[O-])cc2)cc(-c2ccc(Nc3ccnc4cc(Cl)ccc34)cc2)[nH]c1=O for me?
RESULT: > 100 µM

QUERY: GET /values?readout=TGI&item= COc1ccc(N=Nc2c(-c3c(OC)cc4occc4c3OC)[nH]c(=O)c(C#N)c2C)cc1
RESULT: > 100 µM

QUERY: Entry Cc1ccc2c(c1C)C(=O)C1(Cc3cc4c(cc3C1=O)CCC4)C2 (stereo unspecified) has what TGI?
RESULT: > 100 µM

QUERY: For the compound CCCCI(O)OS(=O)(=O)c1ccc(C)cc1 , what TGI is on record?
RESULT: 48.9 µM

QUERY: Name the recorded TGI for O=C(NCCNCCO)c1ccc2c(c1)oc1cc3ccccc3c(=O)n12 .
RESULT: > 50 µM

* * *

So I've got a bunch of molecules here, and I need their TGI values.
# System: SR leukemia
# EXPERIMENT SUMMARY: NCI tumour cell line growth inhibition, 48 h
All answers are understood in µM, so give the number only.

QUERY: What value of TGI has been reported for the following molecule? CCN(CC)Cc1cc(Nc2nc(NC3CCC(N(C)C)CC3)c3ccccc3n2)ccc1OC (centres undefined)
RESULT: 4.74

QUERY: # get_value(readout='TGI', item= CN(C)CCCC1(c2ccc(F)cc2)OCc2cc(-c3cccc4[nH]ccc34)ccc21 (centres undefined) )
RESULT: 2.97

* * *

# Test system: MDA-N
# EXPERIMENT SUMMARY: NCI tumour cell line growth inhibition, 48 h
Hi, to clarify the labels: yes (1) covers TGI from 30 µM upward, no (0) covers anything below 30 µM.

QUERY: For this compound, is measured TGI 30 µM or higher? Cc1c2cccc-2c2cc(O)c3ccccc3c2n1-c1ccc(N(C)C)cc1
RESULT: yes (1)

QUERY: Dear colleague, could you confirm whether O=C1/C(=C\c2ccccc2)CN(C(=O)CCN2CCCCC2)C/C1=C/c1ccccc1 has TGI at or above 30 µM?
RESULT: no (0)

QUERY: Evaluate c1c[nH]c(-c2cccc3nsnc23)c1 : TGI at minimum 30 µM?
RESULT: yes (1)

QUERY: Could you tell me if the measured TGI of COC1N(C2CC(O)C(CO)O2)C(=O)NC(=O)C1(F)Br (stereo not given) reaches 30 µM or more?
RESULT: yes (1)

QUERY: Confirm if TGI reported for the compound CC(C)Oc1cccc(N2C(n3ccnc3)=Nc3ccncc3S2(=O)=O)c1 is 30 µM or above.
RESULT: no (0)

QUERY: Can Cn1nc(-c2ccc(S(=O)(=O)/N=C(\NN)Nc3ccc(Cl)cc3)s2)cc1C(F)(F)F be said to have TGI at or above 30 µM?
RESULT: no (0)

QUERY: Hello, I need to know if O=C(COc1ccc(OCC(=O)N/N=C/c2ccc(-c3ccc(Cl)cc3Cl)o2)c(Cl)c1)N/N=C/c1ccc(-c2ccc(Cl)cc2Cl)o1 has measured TGI not below 30 µM. Thanks!
RESULT: yes (1)

QUERY: Please check the record Cc1nnc2n(c1=O)CCCN2C and state if its TGI is at or above 30 µM.
RESULT: yes (1)

QUERY: Reported TGI at or above 30 µM? NS(=O)(=O)c1nnc(NC(=O)N(c2ccccc2)c2ccccc2)s1
RESULT: yes (1)

* * *

# Test system: RXF 393 renal
# EXPERIMENT SUMMARY: NCI tumour cell line growth inhibition, 48 h
Please provide measured TGI for the entries that follow.
Write down the numeric answer in µM and omit the unit.

QUERY: Missing value: TGI, RXF 393 renal, entry COc1cc2nc(-c3ccc(Cl)cc3)cc(OCCCN3CCOCC3)c2cc1OC . Fill in?
RESULT: 3.79

QUERY: Record COc1ccc2c(N)ncc(C#Cc3cc(C(=O)Nc4ccc(CN5CCN(C)CC5)c(C(F)(F)F)c4)cnc3C)c2c1 : what is its TGI with RXF 393 renal?
RESULT: 1.11
